test system: Acinetobacter baumannii; assay: Antibacterial activity against Acinetobacter baumannii ATCC19606 incubated for 18 to 20 hrs in presence of 1% of human serum by microbroth dilution method; assay type: functional; conditions: time 18-20 hrs
Listing: MIC95 of selected molecules
Unit µM implied. Number only.

Use these answered entries as a reference point.
O=C(CCC(=O)Nc1ccc(NS(=O)(=O)c2ccc(Oc3ccccc3)nc2)c(C(=O)O)c1)Nc1ccc(NS(=O)(=O)c2ccc(Oc3ccccc3)nc2)c(C(=O)O)c1
6.25
CCCCc1ccc(S(=O)(=O)Nc2ccc(NC(=O)CCC(=O)Nc3ccc(NS(=O)(=O)c4ccc(CCCC)cc4)c(C(=O)O)c3)cc2C(=O)O)cc1
11.5
O=C(CCCOc1ccc(NS(=O)(=O)c2ccc(-c3ccc(C(F)(F)F)cc3)cc2)c(C(=O)O)c1)Nc1ccc(NS(=O)(=O)c2ccc(-c3ccc(C(F)(F)F)cc3)cc2)c(C(=O)O)c1
3.12
O=C(CCCOc1ccc(NS(=O)(=O)c2ccc(Oc3ccc(Cl)cc3)nc2)c(C(=O)O)c1)Nc1ccc(NS(=O)(=O)c2ccc(Oc3ccc(Cl)cc3)nc2)c(C(=O)O)c1
3.12
CCCCc1ccc(S(=O)(=O)Nc2ccc(NCCCCNc3ccc(NS(=O)(=O)c4ccc(CCCC)cc4)c(C(=O)O)c3)cc2C(=O)O)cc1
12.5
CCCCc1ccc(S(=O)(=O)Nc2ccc(CNCCC(=O)Nc3ccc(NS(=O)(=O)c4ccc(CCCC)cc4)c(C(=O)O)c3)cc2C(=O)O)cc1
1.56
CCCCc1ccc(S(=O)(=O)Nc2ccc(NC(=O)CCNC(=O)c3ccc(NS(=O)(=O)c4ccc(CCCC)cc4)c(C(=O)O)c3)cc2C(=O)O)cc1
11.3
CCCCc1ccc(S(=O)(=O)Nc2ccc(NC(=O)CCC(=O)Nc3ccc(NS(C)(=O)=O)c(C(=O)O)c3)cc2C(=O)O)cc1
200

Output measured MIC95 for this item: CCCCc1ccc(S(=O)(=O)Nc2ccc(NC(=O)CCC(=O)Nc3ccc(NS(=O)(=O)c4ccc(CCCC)cc4)c(C(=O)O)c3)cc2CC(=O)O)cc1
25

Look up MIC95 of CCCCc1ccc(NS(=O)(=O)c2ccc(NC(=O)CCC(=O)Nc3ccc(NS(=O)(=O)c4ccc(CCCC)cc4)c(C(=O)O)c3)cc2C(=O)O)cc1 and report it.
25

Look up MIC95 of CCCCc1ccc(S(=O)(=O)Nc2ccc(NC(=O)CCC(=O)Nc3ccc(NS(=O)(=O)c4ccc(Oc5ccccc5)nc4)c(C(=O)O)c3)cc2C(=O)O)cc1 and report it.
4.42

Data provenance: ChEMBL document CHEMBL5584343
